Each item that follows carries a reported MIC.
System: Escherichia coli
Assay: Antibacterial activity against Escherichia coli ATCC 25922 after 24 hrs by MTT assay
Format: functional
Conditions: ATCC 25922, 24 h
measuredProperty: MIC (µg/mL)

> print(dat)
                           compoundstructure  valuereported
 1      O=C(N/N=C/c1ccccc1)c1ccc2c(c1)OCCCO2             50
 2   O=C(N/N=C/c1ccc(O)cc1)c1ccc2c(c1)OCCCO2             50
 3  O=C(N/N=C/c1cc([N+](=O)[O-])ccc1Cl)c1ccc2c(c1)OCCCO2           3.13
 4  O=C(N/N=C/c1c(F)cccc1Cl)c1ccc2c(c1)OCCCO2           12.5
 5  COc1ccc(/C=N/NC(=O)c2ccc3c(c2)OCCCO3)cc1OC           3.13
 6  O=C(N/N=C/c1cc(Cl)ccc1O)c1ccc2c(c1)OCCCO2           12.5
 7    O=C(N/N=C/c1ccccc1Br)c1ccc2c(c1)OCCCO2             50
 8     O=C(N/N=C/c1ccccc1O)c1ccc2c(c1)OCCCO2             50
 9   O=Cc1ccccc1/C=N/NC(=O)c1ccc2c(c1)OCCCO2             25
10  O=C(N/N=C/C=C/c1ccccc1)c1ccc2c(c1)OCCCO2             50
11   Cc1ccc(/C=N/NC(=O)c2ccc3c(c2)OCCCO3)cc1             50
